For PfCDPK1 (Plasmodium falciparum), measured IC50 is reported for the entries below.
Could you give me the number in nM? Just the number is fine.

A selection of reference data follows.
- compound: "CC(C)n1nc(-c2ccc3nc(OC4CCC4)ccc3c2)c(C(N)=O)c1N"
  target or system: "PfCDPK1 (Plasmodium falciparum)"
  IC50 / nM: 159
- compound: "CC(C)(C)n1nc(-c2cnc3cc(OC4CC4)ccc3c2)c(C(N)=O)c1N"
  target or system: "PfCDPK1 (Plasmodium falciparum)"
  IC50 / nM: 225
- compound: "CCOc1ccc2cc(-c3nn(C(C)(C)C)c(N)c3C(N)=O)ccc2c1"
  target or system: "PfCDPK1 (Plasmodium falciparum)"
  IC50 / nM: 287

Next up:
Given the entry CCOc1ccc2cc(-c3nn(C4CCOC4)c(N)c3C(N)=O)ccc2n1 (stereo not shown) , report its measured IC50.
468
